tgt: c-Src SH2
method_description: SH2 binding enrichment of the phosphorylated peptide, bacterial display (enrichment ratio); higher = better substrate or ligand; peptides without Tyr show the background;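 note: peptide library displayed on the E. coli surface as eCPX fusions, selected cells deep-sequenced, score is each peptide's frequency after selection divided by its frequency in the input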
assay_readout: SH2 binding enrichment
The response must contain the number and no unit.

>>> value_measured("RLLREYQELMN [KRT75_Y434]")
3.41
>>> value_measured("QWQQLYDTLNA [EIF3M_Y351]")
0.636
>>> value_measured("FSEVRYMKEPY [HIPK4_Y170_V171M]")
0.484

Q: Given the sequence AYRHGYFDEEM [PLEC_Y2971_R2969H] , what is its reported SH2 binding enrichment?
A: 0.634

Q: Given the sequence VDLIVYLWTNP [TK2_Y181_R183W] , what is its reported SH2 binding enrichment?
A: 0.436

Q: Given the sequence QLAPQYTYAQG [FLNA_Y1761] , what is its reported SH2 binding enrichment?
A: 3.16

Q: Given the sequence SHGKRYRVPSD [HHIPL2_Y395] , what is its reported SH2 binding enrichment?
A: 0.557

Q: Given the sequence APTSGYREFVH [IL4R_Y575_Q576R] , what is its reported SH2 binding enrichment?
A: 0.518

Q: Given the sequence SHNELYYEAAE [VANGL1_Y344_E347A] , what is its reported SH2 binding enrichment?
A: 1.4

Q: Given the sequence DVRQEYPGMIL [PLXND1_Y616] , what is its reported SH2 binding enrichment?
A: 0.433

Q: Given the sequence DLEKTYNTYRS [B4GALNT2_Y538_A533D] , what is its reported SH2 binding enrichment?
A: 0.43

Q: Given the sequence LKGQVDILGRE [ASS1_Y359_Y359D] , what is its reported SH2 binding enrichment?
A: 0.595

Q: Given the sequence HPAGNYSLSSV [ARFGAP3_Y473_Q468H] , what is its reported SH2 binding enrichment?
A: 0.603

Q: Given the sequence TVSSDYLHPQF [CCPG1_Y569_F566S_YF] , what is its reported SH2 binding enrichment?
A: 0.527

###

tgt: Grb2 SH2 (UniProt P62993)
Sequence (P62993 whole entry, looked up): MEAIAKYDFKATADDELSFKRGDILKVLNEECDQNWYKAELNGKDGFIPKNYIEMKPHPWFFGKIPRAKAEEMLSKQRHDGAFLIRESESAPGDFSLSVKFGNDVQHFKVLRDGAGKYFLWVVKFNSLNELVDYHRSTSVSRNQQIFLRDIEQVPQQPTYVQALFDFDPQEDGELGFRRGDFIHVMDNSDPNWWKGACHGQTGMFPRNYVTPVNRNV
method_description: SH2 binding enrichment of the phosphorylated peptide, bacterial display (enrichment ratio); higher = better substrate or ligand; peptides without Tyr show the background
assay_readout: SH2 binding enrichment
The response must contain the number and no unit.

Q: Report SH2 binding enrichment for LAGRYYALKSM [CKB_Y174] tested on Grb2 SH2 (UniProt P62993).
A: 1.21

Q: Report SH2 binding enrichment for MKALGYFAVGT [OPA1_Y498_V502G] tested on Grb2 SH2 (UniProt P62993).
A: 0.831

Q: Report SH2 binding enrichment for EVEFEYPFRLH [SYP_Y73] tested on Grb2 SH2 (UniProt P62993).
A: 0.892

Q: Report SH2 binding enrichment for RRERLYGGGGG [FUS_Y526_P525L] tested on Grb2 SH2 (UniProt P62993).
A: 0.657

Q: Report SH2 binding enrichment for KNRDVSSSDYF [USP24_Y2134_Y2134S] tested on Grb2 SH2 (UniProt P62993).
A: 0.921

Q: Report SH2 binding enrichment for DRPSEYAARQL [ANXA13_Y90] tested on Grb2 SH2 (UniProt P62993).
A: 0.746

Q: Report SH2 binding enrichment for KPGVNYYFQVS tested on Grb2 SH2 (UniProt P62993).
A: 1.01

Q: Report SH2 binding enrichment for FTRNYYVRAVL [CYBA_Y88] tested on Grb2 SH2 (UniProt P62993).
A: 0.885
